- ASSAY_TARGET: T1, monomeric recombinant cynomologus monkey Notch3 extracellular domain (containing EGF like domains 1-12) … (cynomologus monkey)
- T1 construct: domain: EGF like domains 1-12; also called monomeric rcNotch3
- EXPERIMENT_DESCRIPTION: SPR BIAcore T100, antibody captured by anti-human IgG Fc, monomeric rcNotch3 analyte, 25 C
OBSERVED_PROPERTY: koff (s⁻¹)
Give your result in s⁻¹ as a bare value.

INPUT: Could you tell me which koff is on file for Hu4F11-80 (antibody, human IgG1, kappa, V domains shown, Humanized, human IgG1 kappa; Hv3-23 S31H T62S heavy + Kv2D-29 N28Q kappa) VH: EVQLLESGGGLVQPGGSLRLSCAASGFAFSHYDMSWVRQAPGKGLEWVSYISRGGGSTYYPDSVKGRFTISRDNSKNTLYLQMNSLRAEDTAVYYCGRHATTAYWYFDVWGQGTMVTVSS VL: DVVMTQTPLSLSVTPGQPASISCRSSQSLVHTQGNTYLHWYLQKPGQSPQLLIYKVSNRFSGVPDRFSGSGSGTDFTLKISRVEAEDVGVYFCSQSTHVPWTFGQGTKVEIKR ?
OUTPUT: 0.0032

All figures here come from patent US20180230213A1.
